testProtocol: melting temperature; fluorescence melt of hairpins on a sequencing array, two-state fit, raised by 9.35 °C to match UV melts
setupConditions: sodium 0.088 M

polymerSequence	unit	Tm
GCATGACGAAAGTCTTGC (((.(((....))).)))	°C	57.5
GCTTCCGAAAGGATAGC ((((((....))).)))	°C	48.7
GATCAGGAAGCTGATC ((((((....))))))	°C	53.9
GATCGTCCGAACGATC ((((((....))))))	°C	55.2
GTCCATCGAAAGATTGAC (((.(((....))).)))	°C	39.7
GATCTCCAGGGAGATC ((((((....))))))	°C	55
GATCAGCCTACTGATC ((((((....))))))	°C	49.9
GCGCAGCGAAAGCCTCGC (((..((....))..)))	°C	42.1
GGTCTTGGAAACGAGATC (.(((.(....).))).)	°C	30.7
GAGCGAGAAATCGCTC ((((((....))))))	°C	67.4
GAATTAGAAATAATTC ((((((....))))))	°C	33.3
GCAATGCGAAAGCAAAGC ((..(((....)))..))	°C	38
GATCTGGAGTCAGATC ((((((....))))))	°C	48.1
CGCGTCCGGAAACGGGCG (((..(((....))))))	°C	55.2
GTTGACGGAAACGTCAAC (((((((....)))))))	°C	66.9
GTTACAGCGAAAGCTAAC (((..(((....))))))	°C	28.2
GCGGACGAAAGTCCCGC ((((((....))).)))	°C	67.1
GGGGGCGGAAACGTCCCC ((((.((....)).))))	°C	67.4
GATCCCCAGTGGGATC ((((((....))))))	°C	59.1
GTCGTCGAAAGACTCGAC ((((((....)))..)))	°C	38.6
GATCAAAGTTTGATC ((((((...))))))	°C	42.7
GTGGGCGAAAGCCAGCAC ((((((....)))..)))	°C	46.5
GATCGGGATGCCGATC ((((((....))))))	°C	57.4
GGTCGCGAAAGCGTGACC ((((((....)))..)))	°C	53.1
CGACGCCGGAAACGGTCG (((..(((....))))))	°C	44.3
GCAATCCCGAAAGGGTGC (((..(((....))))))	°C	46.6
GTTACGAAAGTAAC (((((....)))))	°C	54.7
GTGTCCGAAAGGAACAC ((((((....))).)))	°C	52.8
GGCGATGGAAACATTGCC (((.(((....))).)))	°C	55.2
GCGGCGATCCGC ((((....))))	°C	54
GTGGGACGAAAGTCCAC (((.(((....))))))	°C	55.9
GCGCATGGAAACACACGC (((..((....))..)))	°C	29.6
GCGACCGAAAGGTATCGC ((((((....)))..)))	°C	50.5
GATCCGTCGCGGATC ((((((...))))))	°C	59
GCCGAGCGAAAGCTGGC (((.(((....))))))	°C	68.6
GGTGTCACGAAAGTGACC (((..(((....))))))	°C	50
GGACACGAAAGTGGCTCC ((((((....)))..)))	°C	49
GCGGCTCCGAAAGGACGC (((..(((....))))))	°C	54.7
GATCATCATAATGATC ((((((....))))))	°C	47.1
GTGGCGCGAAAGCGCAC (((.(((....))))))	°C	57.6
GGGTGCGAAAGCATCCC ((((((....))).)))	°C	65.2
GCAATTGGAAACAATTAC (.(((((....))))).)	°C	30.6
GCCCAGGGAAACCTGAGC ((.((((....)))).))	°C	45.5
CAATCGAAAGATTG (((((....)))))	°C	51.3
GCGCACGGAAACGCGCAC (.((.((....)).)).)	°C	52.4
GATCGAGGGTTCGATC ((((((....))))))	°C	50.9
GTACTTGGAAACAAGTAC (((((((....)))))))	°C	56
GGGGCCGAAAGGCTGCCC ((((((....)))..)))	°C	46.4
GTTTCCGAAAGGATAAAC ((((((....)))..)))	°C	29.7
GACTTCGAAAGAAGTC ((((((....))))))	°C	62
GCGGATTTCCGC ((((....))))	°C	64.6
